- Tested on: HOP-92
- assay-comment: NCI tumour cell line growth inhibition, 48 h
Activity calls are given as the source filed them. Cut-off read from the data, not from the text of the source: active = GI50 up to about 1.1 µM and inactive = higher. Where a SMILES comes first, the peptide text is derived from it. The star is where a group is joined. Boc = CC(C)(C)OC(=O)*; Bn = c1ccc(C*)cc1
Recorded GI50 for the following compounds
readout-type: GI50

>  <compound>
O=C1CCSCCC(=O)Nc2ccccc2N1

>  <readout-type>
GI50

>  <observed-result>
> 100 µM (inactive)

$$$$
>  <compound>
CCOP(=O)(OCC)/C(C#N)=C/c1c(C)[nH]c2ccccc12

>  <readout-type>
GI50

>  <observed-result>
> 100 µM (inactive)

$$$$
>  <compound>
CC(=O)N(CN1C(=O)CCC1C(=O)O)c1ccc(C)cc1 (stereo not drawn)

>  <readout-type>
GI50

>  <observed-result>
> 100 µM (inactive)

$$$$
>  <compound>
N[C@H](COCc1ccccc1)c1ccccc1

>  <readout-type>
GI50

>  <observed-result>
23.1 µM (inactive)

$$$$
>  <compound>
CCCc1nc2c(n1CC)C(=O)c1ccccc1C2=O

>  <readout-type>
GI50

>  <observed-result>
> 10 µM (inactive)

$$$$
>  <compound>
C[Si](C)(C)/N=C1\N2C(=NC1(C(F)(F)F)C(F)(F)F)Sc1ccccc12

>  <readout-type>
GI50

>  <observed-result>
29.9 µM (inactive)

$$$$
>  <compound>
COC(=O)/C=C(/OC)[C@H](C)[C@H](/C=C/c1csc(-c2csc(C(C)C)n2)n1)OC

>  <readout-type>
GI50

>  <observed-result>
6.07 µM (inactive)

$$$$
>  <compound>
CO/N=C1/c2sccc2[C@H](NC(=O)C(Cc2ccccc2)NC(=O)OC(C)(C)C)[C@@H]1O (stereo partly drawn)

>  <readout-type>
GI50

>  <observed-result>
> 100 µM (inactive)

$$$$
>  <compound>
C=CC[C@H](C[C@H](C[C@H](C[C@H](C[C@H](C[C@H](C[C@H](C[C@H](C[C@H](C[C@H](CCCCC)OC)OC)OC)OC)OC)OC)OC)OC)OC)OC

>  <readout-type>
GI50

>  <observed-result>
> 100 µM (inactive)

$$$$
>  <compound>
O=C1C2c3[nH]c4ccccc4c3C3CCCCCC3C2C(=O)N1c1ccccc1 (stereo not drawn)

>  <readout-type>
GI50

>  <observed-result>
30.1 µM (inactive)

$$$$
>  <compound>
CSc1ncc2c(n1)-c1ccccc1OC2NC1CC1 (stereo not drawn)

>  <readout-type>
GI50

>  <observed-result>
43.9 µM (inactive)

$$$$
>  <compound>
CN(C)CCNC(=O)c1ccc(C(=O)NCCN(C)C)c2nc3ccccc3cc12

>  <readout-type>
GI50

>  <observed-result>
1.41 µM (inactive)

$$$$
>  <compound>
CCN(CC)CCCC(C)Nc1ccnc2cc3ccccc3cc12 (stereo not drawn)

>  <readout-type>
GI50

>  <observed-result>
12.3 µM (inactive)

$$$$
>  <compound>
N#CC(NCCc1ccccc1)c1ccc(C(C#N)NCCc2ccccc2)cc1 (stereo not drawn)

>  <readout-type>
GI50

>  <observed-result>
> 100 µM (inactive)

$$$$
>  <compound>
O=C(Nn1c(-c2ccccc2)nc2ccccc2c1=O)c1ccc(Cl)cc1

>  <readout-type>
GI50

>  <observed-result>
75.3 µM (inactive)

$$$$
>  <compound>
COC(=O)C(=O)C(C(=O)OC)C(=O)C(=O)Nc1c(Cl)cc([N+](=O)[O-])cc1Cl (stereo not drawn)

>  <readout-type>
GI50

>  <observed-result>
> 100 µM (inactive)

$$$$
>  <compound>
COC(=O)C(CC(C)C)NC(=O)CNC(=O)C(Cc1ccc(OCc2ccccc2)cc1)NC(=O)C(COCc1ccccc1)NC(=O)OC(C)(C)C (stereo not drawn) (Boc-S(Bn)Y(Bn)GL-OMe; configuration not given here)

>  <readout-type>
GI50

>  <observed-result>
> 100 µM (inactive)

$$$$
>  <compound>
NC(=O)c1ncn(C2CCC(CP(=O)(O)O)C2)c1N (stereo not drawn)

>  <readout-type>
GI50

>  <observed-result>
> 100 µM (inactive)

$$$$
>  <compound>
CCCCCOC(=O)C(=O)Nc1[nH]nnc1C(N)=O

>  <readout-type>
GI50

>  <observed-result>
> 100 µM (inactive)

$$$$
>  <compound>
CN(C)C(=O)C(NCCO)c1ccccc1 (stereo not drawn)

>  <readout-type>
GI50

>  <observed-result>
> 100 µM (inactive)

$$$$
>  <compound>
O=c1c2cc(I)ccc2nc(SCc2n[nH]c(=S)o2)n1Cc1ccccc1

>  <readout-type>
GI50

>  <observed-result>
14.3 µM (inactive)

$$$$
>  <compound>
O=c1[nH]c(=O)n(C2CC(O)C(CO)O2)c2nc3ccc4ccccc4c3nc12 (stereo not drawn)

>  <readout-type>
GI50

>  <observed-result>
25.6 µM (inactive)

$$$$
>  <compound>
COc1c(C(C)(C)C)cc(CC2C(=O)C=CC2=O)cc1C(C)(C)C

>  <readout-type>
GI50

>  <observed-result>
16.1 µM (inactive)

$$$$
